pIC50: −log10 of the molar value.
What follows is a collection of pIC50 values obtained with ALDH1A2 (Homo sapiens, UniProt O94788).
Sequence (O94788 whole entry): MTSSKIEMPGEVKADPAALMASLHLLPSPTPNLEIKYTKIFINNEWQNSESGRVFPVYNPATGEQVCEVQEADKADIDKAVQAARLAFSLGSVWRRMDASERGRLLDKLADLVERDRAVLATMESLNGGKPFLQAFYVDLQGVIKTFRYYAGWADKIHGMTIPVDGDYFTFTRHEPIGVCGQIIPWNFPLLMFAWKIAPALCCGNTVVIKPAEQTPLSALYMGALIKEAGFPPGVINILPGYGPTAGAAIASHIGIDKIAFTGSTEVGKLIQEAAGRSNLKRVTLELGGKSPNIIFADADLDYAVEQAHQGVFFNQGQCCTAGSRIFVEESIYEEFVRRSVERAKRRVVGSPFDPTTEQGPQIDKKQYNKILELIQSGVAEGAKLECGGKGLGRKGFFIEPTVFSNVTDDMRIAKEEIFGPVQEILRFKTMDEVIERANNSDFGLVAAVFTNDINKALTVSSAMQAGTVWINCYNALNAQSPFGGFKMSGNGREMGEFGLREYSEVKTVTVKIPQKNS
test readout: pIC50

1. COC(=O)C(C)Oc1ccc2c(C)cc(=O)oc2c1 (centres unmarked)	< 4.00
2. C/C(=N\O)c1cc2cc(Br)ccc2oc1=O	< 4.00

###

test target: ALDH2 (Homo sapiens)
Sequence (P05091 18-517): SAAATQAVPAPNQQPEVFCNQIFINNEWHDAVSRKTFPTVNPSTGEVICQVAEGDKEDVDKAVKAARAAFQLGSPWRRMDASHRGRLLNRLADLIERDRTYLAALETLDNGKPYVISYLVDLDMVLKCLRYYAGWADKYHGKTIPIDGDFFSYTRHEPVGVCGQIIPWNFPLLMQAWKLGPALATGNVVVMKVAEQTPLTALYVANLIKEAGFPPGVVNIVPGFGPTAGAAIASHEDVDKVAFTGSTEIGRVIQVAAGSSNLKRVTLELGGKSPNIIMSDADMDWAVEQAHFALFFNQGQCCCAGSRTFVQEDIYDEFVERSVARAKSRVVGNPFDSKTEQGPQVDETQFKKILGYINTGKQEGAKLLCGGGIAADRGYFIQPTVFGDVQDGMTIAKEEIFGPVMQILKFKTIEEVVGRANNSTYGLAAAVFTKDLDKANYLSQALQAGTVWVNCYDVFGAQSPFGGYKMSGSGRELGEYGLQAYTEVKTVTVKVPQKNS
measurement conditions: 1 mM propionaldehyde
test readout: Mode of inhibition of ALDH2 versus varied NAD+

1. COC(=O)C(C)Oc1ccc2c(C)cc(=O)oc2c1 (stereo not drawn) [Compound 4]	competitive
2. CCCc1c(C)c2cc3c(C)c(C)oc3cc2oc1=O [Compound 2]	competitive
3. Cc1oc2cc3oc(=O)c(C)c(C)c3cc2c1C [Compound 3]	competitive
4. Cc1oc2cc3oc(=O)c(CCC(=O)N4CCCCC4)c(C)c3cc2c1C [Compound 15]	competitive

###

What follows is a collection of IC50 values obtained with ALDH1B1 (Homo sapiens).
Sequence (P30837 18-517): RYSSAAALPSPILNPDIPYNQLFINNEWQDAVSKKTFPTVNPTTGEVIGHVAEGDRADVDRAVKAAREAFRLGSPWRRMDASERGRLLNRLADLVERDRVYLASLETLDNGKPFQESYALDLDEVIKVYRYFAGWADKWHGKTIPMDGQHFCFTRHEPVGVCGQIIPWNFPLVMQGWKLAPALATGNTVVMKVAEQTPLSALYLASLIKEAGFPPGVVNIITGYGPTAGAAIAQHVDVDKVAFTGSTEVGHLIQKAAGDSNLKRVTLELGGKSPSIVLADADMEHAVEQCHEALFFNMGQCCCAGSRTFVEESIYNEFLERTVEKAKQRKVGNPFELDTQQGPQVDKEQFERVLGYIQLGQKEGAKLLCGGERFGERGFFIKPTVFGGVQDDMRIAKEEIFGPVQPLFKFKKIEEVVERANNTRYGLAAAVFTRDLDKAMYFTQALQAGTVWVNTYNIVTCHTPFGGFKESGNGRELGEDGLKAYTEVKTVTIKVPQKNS
test readout: IC50

1) COC(=O)C(C)Oc1ccc2c(C)cc(=O)oc2c1 (stereo not drawn)	> 100 µM
2) CCN(CC)c1ccc2c(C)cc(=O)oc2c1	> 100 µM
3) C/C(=N\O)c1cc2cc(Br)ccc2oc1=O	> 100 µM

###

Each entry below lists one item and its recorded IC50 value.
test target: UniProt:P47895
Sequence (P47895 1-512): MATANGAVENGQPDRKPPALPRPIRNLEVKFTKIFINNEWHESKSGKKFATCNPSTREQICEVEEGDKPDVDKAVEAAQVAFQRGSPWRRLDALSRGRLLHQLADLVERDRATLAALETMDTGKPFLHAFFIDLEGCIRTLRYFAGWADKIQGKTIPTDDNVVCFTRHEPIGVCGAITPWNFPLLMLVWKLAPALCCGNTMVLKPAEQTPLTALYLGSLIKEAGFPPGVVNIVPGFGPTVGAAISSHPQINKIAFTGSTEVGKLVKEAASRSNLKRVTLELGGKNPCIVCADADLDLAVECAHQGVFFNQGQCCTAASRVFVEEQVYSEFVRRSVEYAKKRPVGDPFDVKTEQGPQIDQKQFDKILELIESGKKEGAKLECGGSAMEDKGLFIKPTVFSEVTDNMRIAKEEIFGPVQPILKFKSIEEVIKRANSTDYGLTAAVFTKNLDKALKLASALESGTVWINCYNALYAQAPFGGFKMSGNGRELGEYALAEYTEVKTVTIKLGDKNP
test readout: IC50

1) COC(=O)C(C)Oc1ccc2c(C)cc(=O)oc2c1 (stereo not drawn)	> 100 µM
2) Cc1oc2cc3oc(=O)c4c(c3cc2c1C)CCCC4	> 100 µM
3) CCN(CC)c1ccc2c(C)cc(=O)oc2c1	> 100 µM
